# TARGET OR TEST SYSTEM: K-Ras^G12C : hSOS1 interaction (Homo sapiens, UniProt Q07889)
# EXPERIMENT NOTES: Biochemical assay 1: K-Ras^G12C interaction assay with hSOS1 (HTRF)
# Assay type: binding
# CONDITIONS USED: read-out: Assay 1 (KRAS-SOS Interaction) activity expressed as % inhibition at 20 μM
RECORDED METRIC: inhibition at 20 µM

Sample COc1cc2nc(C)nc(NC(C)c3ccc(=O)[nH]c3)c2cc1OC (single isomer, unassigned; enantiomer 1) [Example 227] — what was its inhibition at 20 µM?
48%

Note, next up: COc1cc2nc(C)nc(N[C@@H](C)c3ccc(-c4ccc5c(c4)OCCN5C)s3)c2cc1OC (stereo in doubt) [Example 164]
41%

Do the same for COc1cc2nc(C)nc(N[C@@H](C)c3ccc(-c4cccc(OCC5CC5)c4)s3)c2cc1OC (stereo in doubt) [Example 170] please
45%

Try this compound next: COc1cc2nc(C)nc(N[C@H](C)c3cccc(-c4ccccc4OCc4ccccc4)c3)c2cc1OC [Example 81]
42%
